Just for reference, patent US20260325533A1 is where these values come from.

Exercise: for every item that follows, state its recorded IC50.
# TGT: CDK2/CCNE1 (Homo sapiens, UniProt P24941)
# TEST_DESCRIPTION: CDK2 homogeneous time-resolved fluorescence (HTRF) kinase assay
# Type: biochemical
# RUN_CONDITIONS: CDK2/CCNE; <25 nM; read-out: CDK2/CCNE IC50 <25 nM

Field request: IC50 | item: N#CC1CCN(c2nccc3cnc(Nc4ccc(C(=O)ON5C(=O)CCC5=O)cc4)cc23)CC1 [Ex 110]
< 25 nM

How about this compound: CS(=O)(=O)N1CCC(Nc2cc3c(N4CCCCC4)nccc3cn2)CC1 [Ex 27]
< 25 nM

How about this compound: N#CC1CCN(c2nccc3cnc(Nc4cccc(C(=O)ON5C(=O)CCC5=O)c4)cc23)CC1 [Ex 258]
< 25 nM

How about this compound: CCC1(CC)C(=O)Nc2cc(C#Cc3nccc4cnc(Nc5ccc(S(=N)(=O)C6COC6)cc5F)cc34)ccc21 (single isomer, unassigned) [Ex 273]
< 25 nM

How about this compound: COCC1(COC)C(=O)Nc2cc(C#Cc3nccc4cnc(Nc5ccc(S(=N)(=O)C(C)C)cc5)cc34)ccc21 (single isomer, unassigned) [Example 321]
< 25 nM

How about this compound: CS(=O)(=O)N1CCC(Nc2cc3c(N4CCCC(CO)C4)nccc3cn2)CC1 (racemic) [Ex 40]
< 25 nM

How about this compound: COc1cc(S(=N)(=O)C(C)C)ccc1Nc1cc2c(C#Cc3ccc4c(c3)NC(=O)C43CC3)nccc2cn1 (single isomer, unassigned) [Ex 334]
< 25 nM

How about this compound: CS(=O)(=O)N1CCC(Nc2cc3c(-c4ccc5c(c4)CC(=O)N5)nccc3cn2)CC1 [Ex 91]
< 25 nM

How about this compound: CC(C)N(C)c1nccc2cnc(NC3CCN(S(C)(=O)=O)CC3)cc12 [Ex 35]
< 25 nM

How about this compound: COc1cc(S(C)(=N)=O)ccc1Nc1cc2c(C#Cc3ccc4c(c3)NC(=O)C43CC3)nccc2cn1 (single isomer, unassigned) [Ex 305]
< 25 nM

How about this compound: N=S(=O)(c1ccc(Nc2cc3c(C#Cc4ccc5c(c4)NC(=O)C54CC4)nccc3cn2)c(F)c1)C1COC1 (single isomer, unassigned) [Example 275]
< 25 nM

How about this compound: CS(=O)(=O)c1ccc(Nc2cc3c(C#C[C@H]4CC[C@H](O)CC4)nccc3cn2)cc1 [Ex 150]
< 25 nM

How about this compound: CS(=O)(=O)N1CCC(Nc2cc3c(C4CCCC4)nccc3cn2)CC1 [Example 22]
< 25 nM

How about this compound: CCC1(CC)C(=O)Nc2cc(C#Cc3nccc4cnc(Nc5ccc(S(=N)(=O)C6COC6)cc5C)cc34)ccc21 (single isomer, unassigned) [Ex 316]
< 25 nM
